Measured values drawn from ChEMBL document CHEMBL4765295 for this set.

assayExplanation: Ulcerogenic activity in fasted albino mouse assessed as average severity of ulcers in gastric mucosa at 10 mg/kg, po for 3 days (reference value: 0)
Type: toxicity, organism-based
particulars: in vivo, 72 h, time 3 day
Below, each entry is listed with its recorded Activity.
measurementLabel: Activity

In [3]: df
Out[3]:
                            molecularstring  measurementlabel  number
0  COc1cc(/C=C/C(=O)/C=C(O)/C=C/c2ccc(OC(=O)[C@H](CCSC)NC(=O)OC(C)(C)C)c(OC)c2)ccc1OC(=O)[C@H](CCSC)NC(=O)OC(C)(C)C          Activity       0
1  COc1cc(/C=C/C(=O)CC(=O)/C=C/c2ccc(O)c(OC)c2)ccc1O          Activity    0.33
2  COc1cc(/C=C/C(=O)/C=C(O)/C=C/c2ccc(OC(=O)[C@@H](C)NC(=O)OCc3ccccc3)c(OC)c2)ccc1OC(=O)[C@@H](C)NC(=O)OCc1ccccc1          Activity       0

====

Below, each entry is listed with its recorded Activity.
Tested on: Mus musculus
assayExplanation: Analgesic activity in albino mouse assessed as protection at 10 mg/kg, ip measured after 60 mins by hot plate test (reference value: 0 %)
Assay type: functional
particulars: 1 h
measurementLabel: Activity (%)

                            molecularstring  measurementlabel  measureunit  number
0  COc1cc(/C=C/C(=O)/C=C(O)/C=C/c2ccc(OC(=O)[C@@H](N)CCSC)c(OC)c2)ccc1OC(=O)[C@@H](N)CCSC.Cl.Cl          Activity            %    46.8
1  COc1ccc2c(c1)c(CC(=O)O)c(C)n2C(=O)c1ccc(Cl)cc1          Activity            %    53.8
2  COc1cc(/C=C/C(=O)/C=C(O)/C=C/c2ccc(OC(=O)CNC(=O)OCC3c4ccccc4-c4ccccc43)c(OC)c2)ccc1OC(=O)CNC(=O)OCC1c2ccccc2-c2ccccc21          Activity            %    19.3
3  COc1cc(/C=C/C(=O)/C=C(O)/C=C/c2ccc(OC(=O)[C@@H](CCSC)NC(=O)OCc3ccccc3)c(OC)c2)ccc1OC(=O)[C@@H](CCSC)NC(=O)OCc1ccccc1          Activity            %    59.1

====

Test system: Mus musculus
assayExplanation: Analgesic activity in albino mouse assessed as forepaw licking/jumping latency time at 10 mg/kg, ip measured after 90 mins by hot plate test (reference value: 2.72 +/- 0.01 sec)
Format: functional
particulars: 1.5 h

molecule	Time, s
COc1cc(/C=C/C(=O)CC(=O)/C=C/c2ccc(O)c(OC)c2)ccc1O [CURCUMIN]	4.54
COc1cc(/C=C/C(=O)/C=C(O)/C=C/c2ccc(OC(=O)[C@H](CCSC)NC(=O)OCC3c4ccccc4-c4ccccc43)c(OC)c2)ccc1OC(=O)[C@H](CCSC)NC(=O)OCC1c2ccccc2-c2ccccc21	3.38
COc1cc(/C=C/C(=O)/C=C(O)/C=C/c2ccc(OC(=O)CNC(=O)OCC3c4ccccc4-c4ccccc43)c(OC)c2)ccc1OC(=O)CNC(=O)OCC1c2ccccc2-c2ccccc21	3.82
COc1cc(/C=C/C(=O)/C=C(O)/C=C/c2ccc(OC(=O)[C@H](N)CCSC)c(OC)c2)ccc1OC(=O)[C@H](N)CCSC.Cl.Cl	3.36
COc1ccc2c(c1)c(CC(=O)O)c(C)n2C(=O)c1ccc(Cl)cc1 [INDOMETHACIN]	3.84
COc1cc(/C=C/C(=O)/C=C(O)/C=C/c2ccc(OC(=O)[C@@H](C)N)c(OC)c2)ccc1OC(=O)[C@@H](C)N.Cl.Cl	4.72
COc1cc(/C=C/C(=O)/C=C(O)/C=C/c2ccc(OC(=O)[C@H](CCSC)NC(=O)OC(C)(C)C)c(OC)c2)ccc1OC(=O)[C@H](CCSC)NC(=O)OC(C)(C)C	4.26
COc1cc(/C=C/C(=O)/C=C(O)/C=C/c2ccc(OC(=O)[C@H](CCSC)NC(=O)OCc3ccccc3)c(OC)c2)ccc1OC(=O)[C@H](CCSC)NC(=O)OCc1ccccc1	3.66
COc1cc(/C=C/C(=O)/C=C(O)/C=C/c2ccc(OC(=O)[C@@H](C)NC(=O)OCc3ccccc3)c(OC)c2)ccc1OC(=O)[C@@H](C)NC(=O)OCc1ccccc1	3.42

====

Tested on: Mus musculus
assayExplanation: Analgesic activity in albino mouse assessed as forepaw licking/jumping latency time at 10 mg/kg, ip measured after 120 mins by hot plate test (reference value: 2.62 +/- 0.06 sec)
Assay type: functional
particulars: 2 h
Below, each entry is listed with its recorded Time.
measurementLabel: Time (s)

In [3]: df
Out[3]:
                                   molecule  measureunit  number
0  COc1cc(/C=C/C(=O)/C=C(O)/C=C/c2ccc(OC(=O)C(C)NC(=O)OCc3ccccc3)c(OC)c2)ccc1OC(=O)C(C)NC(=O)OCc1ccccc1 (stereo not given)            s    3.12
1  COc1cc(/C=C/C(=O)/C=C(O)/C=C/c2ccc(OC(=O)CN)c(OC)c2)ccc1OC(=O)CN.Cl.Cl            s    3.52
2  COc1cc(/C=C/C(=O)/C=C(O)/C=C/c2ccc(OC(=O)CNC(=O)OCC3c4ccccc4-c4ccccc43)c(OC)c2)ccc1OC(=O)CNC(=O)OCC1c2ccccc2-c2ccccc21            s    3.72
3  COc1cc(/C=C/C(=O)/C=C(O)/C=C/c2ccc(OC(=O)[C@@H](CCSC)NC(=O)OCc3ccccc3)c(OC)c2)ccc1OC(=O)[C@@H](CCSC)NC(=O)OCc1ccccc1            s    4.68
4  COc1cc(/C=C/C(=O)/C=C(O)/C=C/c2ccc(OC(=O)[C@@H](CCSC)NC(=O)OC(C)(C)C)c(OC)c2)ccc1OC(=O)[C@@H](CCSC)NC(=O)OC(C)(C)C            s    4.48
5  COc1cc(/C=C/C(=O)/C=C(O)/C=C/c2ccc(OC(=O)[C@@H](N)CCSC)c(OC)c2)ccc1OC(=O)[C@@H](N)CCSC.Cl.Cl            s    4.28
6  COc1cc(/C=C/C(=O)/C=C(O)/C=C/c2ccc(OC(=O)[C@H](N)CCSC)c(OC)c2)ccc1OC(=O)[C@H](N)CCSC.Cl.Cl            s    3.22
7  COc1cc(/C=C/C(=O)/C=C(O)/C=C/c2ccc(OC(=O)CCN)c(OC)c2)ccc1OC(=O)CCN.Cl.Cl            s    3.56
8  COc1cc(/C=C/C(=O)CC(=O)/C=C/c2ccc(O)c(OC)c2)ccc1O            s    3.46
9  CC(C)Cc1ccc(C(C)C(=O)O)cc1 (stereo not given)            s    3.48

====

Test system: Mus musculus
assayExplanation: Analgesic activity in albino mouse assessed as protection at 10 mg/kg, ip measured after 120 mins by hot plate test relative to indomethacin
Type: functional
particulars: 2 h
measurementLabel: Activity (%)

In [3]: df
Out[3]:
                            molecularstring  number
0  COc1cc(/C=C/C(=O)/C=C(O)/C=C/c2ccc(OC(=O)[C@H](CCSC)NC(=O)OC(C)(C)C)c(OC)c2)ccc1OC(=O)[C@H](CCSC)NC(=O)OC(C)(C)C   112.6
1  COc1cc(/C=C/C(=O)/C=C(O)/C=C/c2ccc(OC(=O)[C@H](CCSC)NC(=O)OCc3ccccc3)c(OC)c2)ccc1OC(=O)[C@H](CCSC)NC(=O)OCc1ccccc1      51
2  COc1ccc2c(c1)c(CC(=O)O)c(C)n2C(=O)c1ccc(Cl)cc1     100

====

assayExplanation: Ulcerogenic activity in fasted albino mouse assessed as average number of ulcers in gastric mucosa at 10 mg/kg, po for 3 days (reference value: 0)
Type: toxicity, organism-based
particulars: in vivo, 72 h, time 3 day
measurementLabel: Activity

>>> print(df.to_string())
                                   compound  measurementlabel  number
0  COc1cc(/C=C/C(=O)/C=C(O)/C=C/c2ccc(OC(=O)[C@@H](C)NC(=O)OCc3ccccc3)c(OC)c2)ccc1OC(=O)[C@@H](C)NC(=O)OCc1ccccc1          Activity       0
1  COc1cc(/C=C/C(=O)/C=C(O)/C=C/c2ccc(OC(=O)CN)c(OC)c2)ccc1OC(=O)CN.Cl.Cl          Activity       0
2  COc1cc(/C=C/C(=O)/C=C(O)/C=C/c2ccc(OC(=O)[C@H](CCSC)NC(=O)OC(C)(C)C)c(OC)c2)ccc1OC(=O)[C@H](CCSC)NC(=O)OC(C)(C)C          Activity       0
3  COc1cc(/C=C/C(=O)/C=C(O)/C=C/c2ccc(OC(=O)CNC(=O)OCC3c4ccccc4-c4ccccc43)c(OC)c2)ccc1OC(=O)CNC(=O)OCC1c2ccccc2-c2ccccc21          Activity       0
4  COc1cc(/C=C/C(=O)/C=C(O)/C=C/c2ccc(OC(=O)C(C)NC(=O)OCc3ccccc3)c(OC)c2)ccc1OC(=O)C(C)NC(=O)OCc1ccccc1 (stereo not given)          Activity    0.67
5  COc1cc(/C=C/C(=O)/C=C(O)/C=C/c2ccc(OC(=O)[C@@H](C)N)c(OC)c2)ccc1OC(=O)[C@@H](C)N.Cl.Cl          Activity       0
6  COc1cc(/C=C/C(=O)/C=C(O)/C=C/c2ccc(OC(=O)[C@@H](CCSC)NC(=O)OC(C)(C)C)c(OC)c2)ccc1OC(=O)[C@@H](CCSC)NC(=O)OC(C)(C)C          Activity       0
7  COc1cc(/C=C/C(=O)/C=C(O)/C=C/c2ccc(OC(=O)CCN)c(OC)c2)ccc1OC(=O)CCN.Cl.Cl          Activity       0
8  CC(C)Cc1ccc(C(C)C(=O)O)cc1 (stereo not given) [IBUPROFEN]          Activity    0.33
9  COc1cc(/C=C/C(=O)/C=C(O)/C=C/c2ccc(OC(=O)[C@H](N)CCSC)c(OC)c2)ccc1OC(=O)[C@H](N)CCSC.Cl.Cl          Activity       0
